This collection of values is drawn from PubChem BioAssay AID1918948.

Measured viability, T/C by item
# Test system: K-562 leukemia growth, % test/control
# Protocol: Anticancer human tumor K-562 cell line growth inhibition;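 note: spheroids exposed to compounds for 7 days; 100% = DMSO vehicle wells and lower values mean fewer viable cells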
# Condition notes: second compound 1 µM; first compound 0.03 µM; stronger effect = lower value; spheroids with HUVEC and MSC
Result type: viability, T/C (%)

INSERT INTO measurements (molecule, measured_on, result_type, measurement_units, data_value) VALUES
  ('Nc1ccn(C2OC(CO)C(O)C2(F)F)c(=O)n1 (stereo unspecified) + NC1CC1c1ccc(-c2cccc(O)c2)cc1', 'K-562 leukemia growth, % test/control', 'viability, T/C', '%', 7.41),
  ('CCN(c1cc(-c2ccc(CN3CCOCC3)cc2)cc(C(=O)NCc2c(C)cc(C)[nH]c2=O)c1C)C1CCOCC1 + NC1CC1c1ccc(-c2cccc(O)c2)cc1', 'K-562 leukemia growth, % test/control', 'viability, T/C', '%', 111),
  ('Nc1ncn(C2CC(O)C(CO)S2)c(=O)n1 (stereo unspecified) + NC1CCC(NC2CC2c2ccccc2)CC1', 'K-562 leukemia growth, % test/control', 'viability, T/C', '%', 94.3),
  ('O=C(C=Cc1cccc(S(=O)(=O)Nc2ccccc2)c1)NO + NC1CCC(NC2CC2c2ccccc2)CC1', 'K-562 leukemia growth, % test/control', 'viability, T/C', '%', 107),
  ('CCc1c2c(nc3ccc(O)cc13)-c1cc3c(c(=O)n1C2)COC(=O)[C@]3(O)CC + NC1CC1c1ccc(-c2cccc(O)c2)cc1', 'K-562 leukemia growth, % test/control', 'viability, T/C', '%', 0.89),
  ('CCN(c1cc(-c2ccc(CN3CCOCC3)cc2)cc(C(=O)NCc2c(C)cc(C)[nH]c2=O)c1C)C1CCOCC1 + NC1CCC(NC2CC2c2ccccc2)CC1', 'K-562 leukemia growth, % test/control', 'viability, T/C', '%', 112),
  ('Nc1ccccc1NC(=O)c1ccc(CNC(=O)OCc2cccnc2)cc1 + NC1CC1c1ccc(-c2cccc(O)c2)cc1', 'K-562 leukemia growth, % test/control', 'viability, T/C', '%', 110),
  ('CCc1c2c(nc3ccc(O)cc13)-c1cc3c(c(=O)n1C2)COC(=O)[C@]3(O)CC + NC1CCC(NC2CC2c2ccccc2)CC1', 'K-562 leukemia growth, % test/control', 'viability, T/C', '%', 1.24),
  ('NS(=O)(=O)OCC1CC(n2ccc3c(NC4CCc5ccccc54)ncnc32)CC1O (stereo unspecified) + NC1CC1c1ccc(-c2cccc(O)c2)cc1', 'K-562 leukemia growth, % test/control', 'viability, T/C', '%', 27.1),
  ('O=C(C=Cc1cccc(S(=O)(=O)Nc2ccccc2)c1)NO + NC1CC1c1ccc(-c2cccc(O)c2)cc1', 'K-562 leukemia growth, % test/control', 'viability, T/C', '%', 102),
  ('Nc1ccccc1NC(=O)c1ccc(CNC(=O)OCc2cccnc2)cc1 + NC1CCC(NC2CC2c2ccccc2)CC1', 'K-562 leukemia growth, % test/control', 'viability, T/C', '%', 107);
